Taken from paper PMC5430804.

SYSTEM: T1, AIF(370-394) synthetic peptide (UniProt O95831 370-394)
T1 construct: also called AIF peptide; source: synthetic peptide
T1 peptide (looked up): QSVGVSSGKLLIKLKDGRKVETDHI
EXPERIMENT_DESCRIPTION: EnSpire label-free direct binding assay; direct binding of CypA peptides, CypA or CypA R55A with AIF(370-394) or AIF(Δ1-121); details (who was immobilised) in the Supplementary Information
TEST_CONTEXT: both partners purified
RESULT_TYPE: Kd (µM)
Reply with just the number (in µM).

Below: 5 binders and their reported Kd.
BINDER	Kd [µM]
CypA(121-131) + (99–109), two peptides tested in combination (other, Cyclophilin A (CypA), residues 99-109; A mixture of separate peptides; source: synthetic peptides, combined) peptide 1: WLDGKHVVFGK peptide 2: SMANAGPNTNG	43
CypA(67-79) + (49–62), two peptides tested in combination (other, Cyclophilin A (CypA), residues 67-79; Cyclophilin A (CypA), residues 49-62; A mixture of separate peptides; source: synthetic peptides, combined) peptide 1: FTRHNGTGGKSIY peptide 2: KGSCFHRIIPGFMC	3.1
CypA(121-131) + (83–90), two peptides tested in combination (other, Cyclophilin A (CypA), residues 83-90; A mixture of separate peptides; source: synthetic peptides, combined) peptide 1: WLDGKHVVFGK peptide 2: FEDENFIL	87
CypA(99-109) + (83–90), two peptides tested in combination (other, Cyclophilin A (CypA), residues 99-109; Cyclophilin A (CypA), residues 83-90; A mixture of separate peptides; source: synthetic peptides, combined) peptide 1: SMANAGPNTNG peptide 2: FEDENFIL	304
CypA(55-69) + (67–79) + (49-62), three peptides tested in combination (other, Cyclophilin A (CypA), residues 55-69; Cyclophilin A (CypA), residues 67-79; Cyclophilin A (CypA), residues 49-62; A mixture of separate peptides; source: synthetic peptides, combined; copies: + +) peptide 1: RIIPGFMCQGGDFTR peptide 2: FTRHNGTGGKSIY peptide 3: KGSCFHRIIPGFMC	20.7

Q: Which Kd is listed for CypA(121-131) + (99–109) + (83-90), three peptides tested in combination (other, Cyclophilin A (CypA), residues 99-109; Cyclophilin A (CypA), residues 83-90; A mixture of separate peptides; source: synthetic peptides, combined; copies: + +) peptide 1: WLDGKHVVFGK peptide 2: SMANAGPNTNG peptide 3: FEDENFIL ?
A: 268

Q: Would you mind telling me what Kd value was observed for CypA(55-69) + (49–62), two peptides tested in combination (other, Cyclophilin A (CypA), residues 55-69; Cyclophilin A (CypA), residues 49-62; A mixture of separate peptides; source: synthetic peptides, combined) peptide 1: RIIPGFMCQGGDFTR peptide 2: KGSCFHRIIPGFMC ?
A: 4.6

Q: What measured Kd goes with CypA(55-69) + (67–79), two peptides tested in combination (other, Cyclophilin A (CypA), residues 55-69; Cyclophilin A (CypA), residues 67-79; A mixture of separate peptides; source: synthetic peptides, combined) peptide 1: RIIPGFMCQGGDFTR peptide 2: FTRHNGTGGKSIY ?
A: 34.9
